Target: HNF4alpha2 (COS-7 nuclear extract) (Homo sapiens, UniProt P41235 1-474)
Sequence: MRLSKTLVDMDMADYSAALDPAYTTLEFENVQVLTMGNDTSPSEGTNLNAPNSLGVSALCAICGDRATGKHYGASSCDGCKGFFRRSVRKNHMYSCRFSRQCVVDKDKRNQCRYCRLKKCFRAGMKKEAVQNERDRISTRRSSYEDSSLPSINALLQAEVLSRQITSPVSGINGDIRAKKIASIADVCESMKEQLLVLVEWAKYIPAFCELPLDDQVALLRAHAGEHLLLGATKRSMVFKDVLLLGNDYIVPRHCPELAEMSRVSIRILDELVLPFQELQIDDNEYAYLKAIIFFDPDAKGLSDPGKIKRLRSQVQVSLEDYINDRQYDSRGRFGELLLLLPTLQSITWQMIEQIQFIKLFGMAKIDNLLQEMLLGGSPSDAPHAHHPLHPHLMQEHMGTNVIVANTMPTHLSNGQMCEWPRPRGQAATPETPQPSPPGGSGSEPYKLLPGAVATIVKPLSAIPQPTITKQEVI
Experiment: protein-binding microarray; COS-7 nuclear extract on double-stranded Agilent 4x180k PBM; binding buffer, salt, pH and temperature not given in the material; high values mean tight binding
Settings: chain copies: 2; label: 3' end of strand 1 on the slide; dsDNA, one strand shown
In all, about 18,000 sequences were measured (“log2 normalized intensity”: median about 0.39, highest 2% from about 6.6 on). Only a selection was taken, and the highest values are over-represented in it overall.
Assign t whenever binding signal does not fall below 3 log2 normalized intensity; assign f whenever it does.

Chain	Category
TCCCTTGCTCCACCCTTCTATCCCCTTATCGCCTAGGGAGATTAGAGTATCGGTCGA	f
AACTTTGCAGCAGATAATTACCTGGACTCTGCCTAGGGAGATTAGAGTATCGGTCGA	t
TGCCTGCAGGAGAGAGCAAAGTCCACGCATGCCTAGGGAGATTAGAGTATCGGTCGA	t
ACCACCTTCCCCCATCCCCAACAAAGCTCTGCCTAGGGAGATTAGAGTATCGGTCGA	t
AGTTTGACTCCAAAGGGCTGGAGACTGAGTGCCTAGGGAGATTAGAGTATCGGTCGA	f
GAGGCTGCTCTCTGTCCCTGCACCCTACCCGCCTAGGGAGATTAGAGTATCGGTCGA	f
ATAATTCAGTTTCATTGCACTTTGCCCTCTGCCTAGGGAGATTAGAGTATCGGTCGA	t
AGATACAGGTCAGACCCTGGAATTCCAGAAGCCTAGGGAGATTAGAGTATCGGTCGA	f
CAGAACAAAGTCCAGTAAGGACAGTTCCAGGCCTAGGGAGATTAGAGTATCGGTCGA	f
CATTGATAATTCAGTTTCATTGCACTTTGCGCCTAGGGAGATTAGAGTATCGGTCGA	t
CGCCCCCCAGCGGAAGTCCAGTGGTGTCTTGCCTAGGGAGATTAGAGTATCGGTCGA	t
ATTCCTAAGTTCCAAAGGCCATCCACATTCGCCTAGGGAGATTAGAGTATCGGTCGA	f
TTGCCCTTTGCCCAACCCTCTCCCACTCCCGCCTAGGGAGATTAGAGTATCGGTCGA	t
CAACTCCAAAGTCCAAAGTCCAGTCTTATCGCCTAGGGAGATTAGAGTATCGGTCGA	t
TGCAAGTTACCTTGGGGTCAAAGTACATCCGCCTAGGGAGATTAGAGTATCGGTCGA	t
TGTCTCCCTCTGCAGCAAAGTCCAGGCATAGCCTAGGGAGATTAGAGTATCGGTCGA	f
CTGTTGGTGACTGACCCTGATCCCTCCCTGGCCTAGGGAGATTAGAGTATCGGTCGA	t
TGCTTTCTTATCTGGGGGCCATTCCTCTATGCCTAGGGAGATTAGAGTATCGGTCGA	f
GGAGGAGCTGTTTGACATCCAAAGTTTCCTGCCTAGGGAGATTAGAGTATCGGTCGA	f
TCACACACACACACACACACACCCCACACAGCCTAGGGAGATTAGAGTATCGGTCGA	f
CAGGGAGCCCTTATATCCACATGGGTCCAAGCCTAGGGAGATTAGAGTATCGGTCGA	f
GACCAGTCTGCCTGACTCCAGAGTCCAAACGCCTAGGGAGATTAGAGTATCGGTCGA	f
GTGAGGTCACAGTATTCATTCCCCTAGTATGCCTAGGGAGATTAGAGTATCGGTCGA	f
GGCCTTGGGCCACCTGAGACAGTTTATGCCGCCTAGGGAGATTAGAGTATCGGTCGA	f
TTACTATAGGTTCTACTCTCCCCAGTTCAAGCCTAGGGAGATTAGAGTATCGGTCGA	t
AGCCCTTATATCCACATGGGTCCAAAGTTCGCCTAGGGAGATTAGAGTATCGGTCGA	t
TAATTGCCCTTTGCCCTTTGCCCAACCCTCGCCTAGGGAGATTAGAGTATCGGTCGA	t
CACTGCACCTGCCTGAACAAGTCCAGTGACGCCTAGGGAGATTAGAGTATCGGTCGA	f
ATGGTGGCCATTCTGATTTGATAAGATGTGGCCTAGGGAGATTAGAGTATCGGTCGA	f
CAGTGGGCCCAGAGCACAACCTTTGGCCGTGCCTAGGGAGATTAGAGTATCGGTCGA	t
CACACACACACACACACCCCACACACCAAAGCCTAGGGAGATTAGAGTATCGGTCGA	t
GACAGGATATTTTGAGGGCTCAAAGGTTACGCCTAGGGAGATTAGAGTATCGGTCGA	t
TCAGTTTCATTGCACTTTGCCCTCTCTTCAGCCTAGGGAGATTAGAGTATCGGTCGA	t
TCTGTTTGATTCCATGCTGATAATGGAATTGCCTAGGGAGATTAGAGTATCGGTCGA	f
GGATCGGAACCCCACCCCCACGCCCCCCAGGCCTAGGGAGATTAGAGTATCGGTCGA	t

====

Molecular target: HNF4alpha2 (COS-7 nuclear extract) (Homo sapiens, UniProt P41235 1-474)
Sequence: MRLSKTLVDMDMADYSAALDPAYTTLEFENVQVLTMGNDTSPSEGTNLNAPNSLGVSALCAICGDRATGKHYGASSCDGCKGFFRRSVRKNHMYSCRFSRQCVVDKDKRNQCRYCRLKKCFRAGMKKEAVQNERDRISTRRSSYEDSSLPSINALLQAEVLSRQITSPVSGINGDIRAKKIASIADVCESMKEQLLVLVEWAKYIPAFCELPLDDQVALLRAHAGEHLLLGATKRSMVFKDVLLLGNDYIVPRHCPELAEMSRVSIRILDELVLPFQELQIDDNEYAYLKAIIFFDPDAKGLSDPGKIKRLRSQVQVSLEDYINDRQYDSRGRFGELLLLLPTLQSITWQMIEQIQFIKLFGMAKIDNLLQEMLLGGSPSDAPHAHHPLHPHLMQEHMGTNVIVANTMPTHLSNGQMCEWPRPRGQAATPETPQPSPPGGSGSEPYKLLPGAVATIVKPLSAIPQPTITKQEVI
Assay: protein-binding microarray; COS-7 nuclear extract on double-stranded Agilent 4x180k PBM; binding buffer, salt, pH and temperature not given in the material; high values mean tight binding
Conditions: chain copies: 2; label: 3' end of strand 1 on the slide; dsDNA, one strand shown
Whole data set: some 18,000 sequences, median “log2 normalized intensity” near 0.39, cut for the highest 2% near 6.6. For the sample, the highest values were picked, then their nearest neighbours and some sequences at random.
Measured binding signal, listed per entry for reference.

Chain	binding signal, log2 normalized intensity
CAATCCTGGAGAAGGAGCACCAATGACCTTGCCTAGGGAGATTAGAGTATCGGTCGA	3.47
ATTATCTGCTTTTATGACCTTTGACTGCAGGCCTAGGGAGATTAGAGTATCGGTCGA	6.64
GCCCTCCCCCAGAGAGAACAGTCCTACAAAGCCTAGGGAGATTAGAGTATCGGTCGA	2.08
GAAGGAGCACCAATGACCTTTGACCCTTCTGCCTAGGGAGATTAGAGTATCGGTCGA	11.1
TCTGCCTTTTATCTATTTGTCGCCTCTGACGCCTAGGGAGATTAGAGTATCGGTCGA	0.141
CCTAAGCCTTATTATCTGCTTTTATGACCTGCCTAGGGAGATTAGAGTATCGGTCGA	3.06
CTTCAAAGGTCGTGTGCTTATCACATCTATGCCTAGGGAGATTAGAGTATCGGTCGA	1.12
AGGGGCTATTTCTGACCTTTGCACCAGAGAGCCTAGGGAGATTAGAGTATCGGTCGA	6.87
TTTATGACCTTTGACTGCAGAAGATAAGAAGCCTAGGGAGATTAGAGTATCGGTCGA	3.94

====

Molecular target: HNF4alpha2 (COS-7 nuclear extract) (Homo sapiens, UniProt P41235 1-474)
Sequence: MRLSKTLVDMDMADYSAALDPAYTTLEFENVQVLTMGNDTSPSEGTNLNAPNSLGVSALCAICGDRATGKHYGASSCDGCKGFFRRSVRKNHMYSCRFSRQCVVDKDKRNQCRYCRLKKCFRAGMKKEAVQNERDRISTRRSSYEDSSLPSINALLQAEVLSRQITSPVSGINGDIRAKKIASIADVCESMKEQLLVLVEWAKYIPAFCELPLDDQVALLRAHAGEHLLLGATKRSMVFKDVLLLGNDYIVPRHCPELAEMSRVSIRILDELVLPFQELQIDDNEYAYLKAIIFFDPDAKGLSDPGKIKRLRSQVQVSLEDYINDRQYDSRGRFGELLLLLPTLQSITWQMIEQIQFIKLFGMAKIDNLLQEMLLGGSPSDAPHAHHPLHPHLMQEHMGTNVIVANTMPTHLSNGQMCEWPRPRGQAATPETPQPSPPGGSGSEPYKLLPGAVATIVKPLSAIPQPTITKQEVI
Test: protein-binding microarray; COS-7 nuclear extract on double-stranded Agilent 4x180k PBM; binding buffer, salt, pH and temperature not given in the material; high values mean tight binding
Conditions: chain copies: 2; label: 3' end of strand 1 on the slide; dsDNA, one strand shown
The full ranking holds about 18,000 sequences; the median of “log2 normalized intensity” is about 0.39, and the highest 2% start at about 6.6. What follows is part of a selection rich in the highest values, with near analogues and random picks from the rest.
Assign true (1) whenever binding signal does not fall below 7 log2 normalized intensity; assign false (0) whenever it does.

Chain	Category
AGTGCTGCATGCAAAAAGGCTGACCTTTGAGCCTAGGGAGATTAGAGTATCGGTCGA	true (1)
CTTTTTGACCTTGCAGTGGCAAGGCAAAAGGCCTAGGGAGATTAGAGTATCGGTCGA	false (0)
CTGAGGAAGTGCTGACCTTTGGTCTAAACCGCCTAGGGAGATTAGAGTATCGGTCGA	false (0)
AAGAGCTGAGGAAGTGCTGACCTTTGGTCTGCCTAGGGAGATTAGAGTATCGGTCGA	true (1)
ATGCAAAGCCCTGGCTGACCTTTAGCCTGGGCCTAGGGAGATTAGAGTATCGGTCGA	false (0)
